Cited source: patent EP4680608B1

# System under test: P. vivax DHODH (Plasmodium vivax)
# Sequence (A5K1N1 entry or part of it): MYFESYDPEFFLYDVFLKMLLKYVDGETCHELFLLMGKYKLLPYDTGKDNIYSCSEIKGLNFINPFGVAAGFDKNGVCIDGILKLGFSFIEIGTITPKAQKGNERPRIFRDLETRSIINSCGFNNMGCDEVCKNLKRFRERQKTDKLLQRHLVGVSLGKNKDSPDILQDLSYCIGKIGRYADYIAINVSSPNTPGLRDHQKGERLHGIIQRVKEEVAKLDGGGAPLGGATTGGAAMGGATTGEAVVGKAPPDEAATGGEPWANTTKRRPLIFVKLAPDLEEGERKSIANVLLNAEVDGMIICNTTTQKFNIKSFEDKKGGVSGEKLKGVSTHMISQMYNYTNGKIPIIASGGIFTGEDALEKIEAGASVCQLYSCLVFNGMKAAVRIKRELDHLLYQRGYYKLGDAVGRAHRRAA
# Protocol summary: DHODH inhibition, steady-state DCIP assay (PvDHODH)
# Type: biochemical
# Study conditions: recombinant PvDHODH, DCIP method, 25°C, 5 nM enzyme; read-out: P. vivax DHODH (IC50)
pIC50: −log10 of the molar value.
Catalogue of pIC50 values
Reported metric: pIC50

| Molecule | Observed |
| --- | --- |
| Cn1nc2c(=O)n(C3CC3)ncc2c1[C@](O)(c1cnc(C(F)(F)F)c(Cl)c1)C1CC1 (single isomer, unassigned) | 7.68 |
| Cn1nc2c(=O)n(C3CC3)cnc2c1[C@](O)(c1cnc(C(F)(F)F)c(Cl)c1)C(F)F (single isomer, unassigned) | 8.11 |
| CC[C@@](N)(c1cnc(C(F)(F)F)c(Cl)c1)c1c2ccn(C3CC3)c(=O)c2nn1C (single isomer, unassigned) | 7.39 |
| CCn1ccc2c([C@](O)(c3cnc(C(F)(F)F)c(Cl)c3)C3CC3)n(C)nc2c1=O (single isomer, unassigned) | 8.10 |
| CC[C@@](N)(c1ccc(C(F)(F)F)c(Cl)c1)c1c2ccn(C3CC3)c(=O)c2nn1C (single isomer, unassigned) | 8.21 |
| CC[C@@](N)(c1ccc(F)c(Cl)c1)c1c2ncn(C3CC3)c(=O)c2nn1C (single isomer, unassigned) | 7.70 |

###

# System: P. falciparum 3D7
# Protocol summary: Asexual blood-stage growth inhibition assay, SYBR green method
# Assay type: cell-based
# Study conditions: Plasmodium falciparum, 3D7, 72 h, ring-stage 3D7 parasites
# Description: Asexual blood-stage EC50 assays. […] Compound stocks prepared in DMSO were plated using a Tecan D300e automated low volume liquid handler. […] Data were analyzed by non-linear regression using GraphPad Prism to determine the EC50 by fitting to the built-in equation (log(inhibitor) vs response-variable slope with four parameters).
Reported metric: EC50 (nM)

| Molecule | Observed |
| --- | --- |
| CC[C@@](N)(c1ccc(F)c(Cl)c1)c1c2ncn(C3CC3)c(=O)c2nn1C (single isomer, unassigned) | 4.1 |
| CCn1ccc2c([C@@](O)(CC)c3ccc(C(F)(F)F)nc3)n(C)nc2c1=O (single isomer, unassigned) | 1.5 |
| Cn1nc2c(=O)n(C3CC3)ncc2c1[C@](O)(c1ccc(C(F)(F)F)c(Cl)c1)C(F)(F)F (single isomer, unassigned) | 0.29 |
| Cn1nc2c(=O)n(C3CC3)ccc2c1[C@](O)(c1ccc(C(F)(F)F)c(C#N)c1)C1CC1 (single isomer, unassigned) | 1.3 |
| Cn1nc2c(=O)n(C3CC3)ccc2c1[C@](O)(c1ccc(F)c(Cl)c1)C(F)(F)F (single isomer, unassigned) | 0.52 |
| CCn1ccc2c([C@@](O)(CC)c3cnc(C(F)(F)F)c(Cl)c3)n(C)nc2c1=O (single isomer, unassigned) | 0.49 |

###

# System: P. falciparum 3D7
# Protocol summary: Asexual blood-stage growth inhibition assay, SYBR green method
# Format: cell-based
# Study conditions: Plasmodium falciparum, 3D7, 72 h, ring-stage 3D7 parasites
pEC50: −log10 of the molar value.
Reported metric: pEC50

| Molecule | Reported metric | Observed |
| --- | --- | --- |
| CCn1ccc2c([C@@](O)(CC)c3ccc(F)c(Cl)c3)n(C)nc2c1=O (single isomer, unassigned) [1-34] | pEC50 | 9.52 |
| CC[C@@](O)(c1ccc(C(F)(F)F)c(Cl)c1)c1c2cnn(C3CC3)c(=O)c2nn1C (single isomer, unassigned) [2-15] | pEC50 | 9.49 |
| CC[C@@](N)(c1cnc(C(F)(F)F)c(Cl)c1)c1c2ccn(C3CC3)c(=O)c2nn1C (single isomer, unassigned) [4-11] | pEC50 | 8.59 |
| Cn1nc2c(=O)n(C3CC3)cnc2c1[C@](O)(c1cnc(C(F)(F)F)c(Cl)c1)C(F)F (single isomer, unassigned) [5-22] | pEC50 | 8.21 |
